assay: Growth inhibition of human NCI60 cells; type: functional; details: Homo sapiens, NCI60
Metric: GI50 (nM)
Numbers only; they are read as nM.

// below: answered molecules
{"Molecule": "CC(C)CC(=O)O[C@H]1C(=O)O[C@@H]2C[C@H]3[C@H](C)C(=O)C(O[C@@H]4O[C@H](CO)[C@@H](O)[C@H](O)[C@H]4O)=C[C@]3(C)[C@H]3[C@@H](O)[C@H](O)[C@]4(C(=O)O)OC[C@]32[C@@H]14 [BRUCEOSIDE E]", "Reported result": 52000}
{"Molecule": "COC(=O)[C@]12OC[C@]34[C@H]([C@@H](O)[C@@H]1O)[C@@]1(C)C=C5OC(=O)C=C5[C@@H](C)[C@@H]1C[C@H]3OC(=O)[C@H](OC(C)=O)[C@@H]24 [SERGEOLIDE]", "Reported result": 3.8}
{"Molecule": "COC(=O)[C@@]12OC[C@]34[C@H]([C@@H](O)C1O)[C@@]1(C)CC(=O)C(O)=C(C)[C@@H]1C[C@H]3OC(=O)[C@H](OC(=O)CC(C)C(F)(F)F)[C@H]42 (stereo partly specified)", "Reported result": 28}
{"Molecule": "CC[C@@H](C)C(=O)O[C@H]1C(=O)O[C@@H]2C[C@H]3C(C)=CC(=O)[C@@H](O)[C@]3(C)[C@H]3[C@@H](O)[C@H](O)[C@]4(C)OC[C@]32[C@@H]14 [SIMALIKALACTONE D]", "Reported result": 39}
{"Molecule": "CC[C@@](O)(CC(=O)O[C@@H]1C(=O)O[C@@H]2C[C@@H]3C(C)=CC(=O)[C@H](O)[C@]3(C)[C@H]3[C@]4(O)OC[C@]32[C@@H]1[C@@H](C)[C@H]4O)C(C)C [PENINSULARINONE]", "Reported result": 1}

## Input Requested field: GI50. Item: CC(=O)OC(C)(C)/C(C)=C/C(=O)O[C@H]1C(=O)O[C@@H]2C[C@H]3[C@H](C)C(=O)C(O[C@@H]4O[C@H](CO)[C@@H](O)[C@H](O)[C@H]4O)=C[C@]3(C)[C@H]3[C@@H](O)[C@H](O)[C@]4(C(=O)O)OC[C@]32[C@@H]14 [BRUCEOSIDE F]
## Output 74000

## Input Requested field: GI50. Item: CC(C)=CC(=O)O[C@@H]1[C@H]2C(C)=C[C@H](O)[C@@H](O)[C@]2(C)[C@H]2[C@]3(O)OC[C@@]24[C@@H]1OC(=O)C[C@H]4[C@@H](C)[C@H]3O
## Output 260

## Input Requested field: GI50. Item: COC(=O)[C@@]12OC[C@]34[C@H]([C@H](O)[C@@H]1O)[C@@]1(C)CC(=O)C(OC(C)=O)=C(C)[C@H]1C[C@H]3OC(=O)[C@@H](OC(=O)C=C(C)C)[C@@H]24
## Output 790

* * *

assay: Growth inhibition of human NCI60 cells; format: functional; details: Homo sapiens, NCI60
Metric: GI50 (nM)
Numbers only; they are read as nM.

// below: answered molecules
{"Molecule": "COC(=O)[C@@]12OC[C@]34[C@H]([C@@H](O)[C@@H]1O)[C@@]1(C)C=C5OC(=O)C=C5[C@@H](C)[C@@H]1C[C@H]3OC(=O)[C@H](O)[C@@H]24", "Unit name": "nM", "GI50": 160}
{"Molecule": "CC(=O)O[C@H]1C(=O)O[C@@H]2C[C@H]3C(C)=CC(=O)[C@@H](O)[C@]3(C)[C@H]3[C@]4(O)OC[C@]32[C@@H]1[C@@H](C)[C@H]4O [HOLACANTHONE]", "Unit name": "nM", "GI50": 30}

Proceed to the following item.
## Input Requested field: GI50. Item: COC(=O)[C@@]12OC[C@]34[C@H]([C@@H](O)[C@@H]1O)[C@@]1(C)CC(=O)C(O)=C(C)[C@@H]1C[C@H]3OC(=O)[C@H](OC(=O)/C=C(\C)C(C)C)[C@@H]24 [BRUCEANTIN]
## Output 5
